target: human B2 bradykinin receptors (Homo sapiens); construct: purchased Receptor Biology, Inc. (Baltimore, MD); host or cells: CHO-K1 cells transfected with the human B2 receptor (membranes); assay: Bradykinin B2 (BK2) Receptor Binding Assay; conditions: membranes of CHO-K1 cells transfected with human B2 bradykinin receptors; ~0.25 nM [3H]NPC17731; 60 min at 25°C
measured_attribute: pKi
Note on units: pKi is unitless, being -log10 of a concentration expressed in mol/L.

compound	pKi
Cc1ccc2cccc(OCc3c(Cl)ccc(N(C)C(=O)Cc4ccc(C(=O)c5ccccc5)n4C)c3Cl)c2n1 [Compound 29]	5.64
Cc1ccc2cccc(OCc3c(Cl)ccc(N(C)C(=O)Cc4ccc(C(=O)c5ccc(C#N)cc5)n4CC(C)C)c3Cl)c2n1 [Compound 12]	7.27
Cc1ccc2cccc(OCc3c(Cl)ccc(N(C)C(=O)Cc4ccc(C(=O)c5ccc(Br)cc5)n4C)c3Cl)c2n1 [Compound 35]	5.98

Proceed to the following item.
Suppose we examine the compound COc1ccc(C(=O)c2ccc(CC(=O)N(C)c3ccc(Cl)c(COc4cccc5ccc(C)nc45)c3Cl)n2C)cc1 [Compound 68] ; what pKi value has been reported?
6.72

====

Recorded pKi for the following compounds
Biological target: human B2 bradykinin receptors (Homo sapiens, UniProt P30411)
Construct: purchased Receptor Biology, Inc. (Baltimore, MD); host or cells: CHO-K1 cells transfected with the human B2 receptor (membranes)
Sequence (P30411 1-391): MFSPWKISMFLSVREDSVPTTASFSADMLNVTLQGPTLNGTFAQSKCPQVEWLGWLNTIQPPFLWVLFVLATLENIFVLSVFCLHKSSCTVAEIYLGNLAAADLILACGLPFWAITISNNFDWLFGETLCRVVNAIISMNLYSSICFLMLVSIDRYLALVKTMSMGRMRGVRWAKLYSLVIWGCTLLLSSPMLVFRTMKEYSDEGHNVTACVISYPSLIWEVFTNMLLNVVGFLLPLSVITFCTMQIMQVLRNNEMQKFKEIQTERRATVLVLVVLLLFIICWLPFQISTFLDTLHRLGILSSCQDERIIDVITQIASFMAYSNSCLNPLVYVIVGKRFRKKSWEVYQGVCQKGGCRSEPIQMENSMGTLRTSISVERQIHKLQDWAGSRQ
Test: Bradykinin B2 (BK2) Receptor Binding Assay
Details: membranes of CHO-K1 cells transfected with human B2 bradykinin receptors; ~0.25 nM [3H]NPC17731; 60 min at 25°C
pKi (log units): -log10 of the concentration in mol/L.

Examples from the recorded data:
compound_string	pKi
Cc1ccc2cccc(OCc3c(Cl)ccc(N(C)C(=O)Cc4ccc(C(=O)CN(C)c5ccccc5)n4C)c3Cl)c2n1	5.27
Cc1ccc2cccc(OCc3c(Cl)ccc(N(C)C(=O)Cc4ccc(C(=O)Cc5ccccc5)n4C)c3Cl)c2n1	5.63
CCN(C(=O)Cc1ccc(C(=O)c2ccc(C#N)cc2)n1C)c1ccc(C)c(COc2cccc3ccc(C)nc23)c1C	6.88

Give its pKi value. Item: `Cc1ccc2cccc(OCc3c(Cl)ccc(N(C)C(=O)Cc4ccc(C(=O)c5ccc(F)cc5)n4C)c3Cl)c2n1`
5.94

Param item = `COc1ccc(C(=O)c2cc(CC(=O)N(C)c3ccc(Cl)c(COc4cccc5ccc(C)nc45)c3Cl)n(C)c2)cc1` ; retrieve measured pKi.
6.29

Which pKi value belongs to `Cc1ccc2cccc(OCc3c(Cl)ccc(N(C)C(=O)CCc4ccc(C(=O)c5ccc(Cl)nc5)n4C)c3Cl)c2n1` ?
7.24

Which measured pKi value corresponds to `CSc1ccc(C(=O)c2ccc(CC(=O)N(C)c3ccc(Cl)c(COc4cccc5ccc(C)nc45)c3Cl)n2C)cc1` ?
6.96

====

Molecular target: CHO-hB2 cell membranes (Homo sapiens)
Construct: purchased Receptor Biology, Inc. (Baltimore, MD); host or cells: CHO-hB2 cells (membranes)
Sequence (P30411 1-391): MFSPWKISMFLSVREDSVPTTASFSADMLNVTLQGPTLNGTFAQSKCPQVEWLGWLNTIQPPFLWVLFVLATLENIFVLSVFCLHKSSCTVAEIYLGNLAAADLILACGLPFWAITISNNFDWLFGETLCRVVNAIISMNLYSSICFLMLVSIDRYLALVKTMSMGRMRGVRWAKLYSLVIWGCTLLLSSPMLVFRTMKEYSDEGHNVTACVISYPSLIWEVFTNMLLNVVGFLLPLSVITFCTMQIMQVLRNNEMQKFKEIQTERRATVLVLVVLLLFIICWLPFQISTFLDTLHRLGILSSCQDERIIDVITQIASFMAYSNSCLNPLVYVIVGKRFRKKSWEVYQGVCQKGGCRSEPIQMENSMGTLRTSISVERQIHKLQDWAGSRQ
Test: [35S]GTPγS Binding Assay in CHO-hB2 Cell Membranes
Format: biochemical
Conditions: word part of the cell; effect on bradykinin-stimulated [35S]GTPγS binding
measured_attribute: Functional Activity

compound_string	Functional Activity
Cc1ccc2cccc(OCc3c(Cl)ccc(N(C)C(=O)Cc4ccc(C(=O)c5ccc([N+](=O)[O-])cc5)n4C)c3Cl)c2n1	Antagonist
CC(=O)Nc1cccc(C(=O)c2ccc(CC(=O)N(C)c3ccc(Cl)c(COc4cccc5ccc(C)nc45)c3Cl)n2C)c1	Antagonist
Cc1ccc2cccc(OCc3c(Cl)ccc(N(C)C(=O)Cc4ccc(C(=O)c5ccc([N+](=O)[O-])c(C)c5)n4C)c3Cl)c2n1	Antagonist
Cc1ccc2cccc(OCc3c(Cl)ccc(N(C)C(=O)CCc4ccc(C(=O)c5ccncc5)n4C)c3Cl)c2n1	Antagonist
CSc1ccc(C(=O)c2ccc(CC(=O)N(C)c3ccc(Cl)c(COc4cccc5ccc(C)nc45)c3Cl)n2C)cc1	Antagonist
Cc1ccc2cccc(OCc3c(Cl)ccc(N(C)C(=O)Cc4ccc(C(=O)CN5CCC(Cc6ccccc6)CC5)n4C)c3Cl)c2n1	No effect
Cc1ccc2cccc(OCc3c(Cl)ccc(N(C)C(=O)Cc4ccc(C(=O)c5ccccc5[N+](=O)[O-])n4C)c3Cl)c2n1	Antagonist
CCN(C(=O)Cc1ccc(C(=O)c2ccc(C#N)cc2)n1C)c1ccc(Cl)c(COc2cccc3ccc(C)nc23)c1Cl	No effect

Given the molecule `CCN(C(=O)Cc1ccc(C(=O)c2ccc(Cl)nc2)n1C)c1ccc(Cl)c(COc2cccc3ccc(C)nc23)c1Cl` , what is its reported Functional Activity?
No effect

====

Target: human B2 bradykinin receptors (Homo sapiens, UniProt P30411)
Construct: purchased Receptor Biology, Inc. (Baltimore, MD); host or cells: CHO-K1 cells transfected with the human B2 receptor (membranes)
Sequence (P30411 1-391): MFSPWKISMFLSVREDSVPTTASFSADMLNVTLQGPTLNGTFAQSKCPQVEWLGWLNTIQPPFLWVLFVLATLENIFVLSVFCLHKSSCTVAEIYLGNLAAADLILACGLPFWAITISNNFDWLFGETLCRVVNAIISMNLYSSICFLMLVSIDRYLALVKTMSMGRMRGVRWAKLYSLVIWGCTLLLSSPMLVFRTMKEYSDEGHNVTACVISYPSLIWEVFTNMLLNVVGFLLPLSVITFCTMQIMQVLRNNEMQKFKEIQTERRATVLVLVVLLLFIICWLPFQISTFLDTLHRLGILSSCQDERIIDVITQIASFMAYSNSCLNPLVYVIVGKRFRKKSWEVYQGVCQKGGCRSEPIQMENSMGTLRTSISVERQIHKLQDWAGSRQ
Test: Bradykinin B2 (BK2) Receptor Binding Assay
Settings: membranes of CHO-K1 cells transfected with human B2 bradykinin receptors; ~0.25 nM [3H]NPC17731; 60 min at 25°C
measured_attribute: Ki (µM)
Express the result in µM but write the number alone.

molecule	test_system	units_symbol	value
Cc1ccc2cccc(OCc3c(C)ccc(N(C)C(=O)CCc4ccc(C(=O)c5ccccc5)s4)c3C)c2n1	human B2 bradykinin receptors (Homo sapiens, UniProt P30411)	µM	0.554
CC(=O)Nc1cccc(C(=O)c2ccc(CC(=O)N(C)c3ccc(Cl)c(COc4cccc5ccc(C)nc45)c3Cl)n2C)c1	human B2 bradykinin receptors (Homo sapiens, UniProt P30411)	µM	0.085
CCn1cc(CC(=O)N(C)c2ccc(Cl)c(COc3cccc4ccc(C)nc34)c2Cl)cc1C(=O)c1ccc(C#N)cc1	human B2 bradykinin receptors (Homo sapiens, UniProt P30411)	µM	0.532

Can you share its Ki? I mean this molecule: `Cc1nc2c(OCc3c(Cl)ccc(N(C)C(=O)Cc4ccc(C(=O)c5ccc(C#N)cc5)n4C)c3Cl)cccn2c1Br`
0.0474

Consider the molecule `Cc1ccc2cccc(OCc3c(Cl)ccc(N(C)C(=O)Cc4cc(C(=O)c5ccc(S(C)(=O)=O)cc5)cn4C)c3Cl)c2n1` and give its measured Ki.
2.91

Look up Ki for this molecule: `Cc1ccc2cccc(OCc3c(Cl)ccc(N(C)C(=O)Cc4ccc(C(=O)c5ccc(S(N)(=O)=O)cc5)n4C)c3Cl)c2n1`
0.162

# lookup: Ki of `Cc1ccc2cccc(OCc3c(Cl)ccc(N(C)C(=O)Cc4ccc(C(=O)C5CC5)n4C)c3Cl)c2n1`
1.53

Record request: Ki value, item `CCOc1ccc(C(=O)c2ccc(CCC(=O)N(C)c3ccc(C)c(COc4cccc5ccc(C)nc45)c3C)n2C)cn1`
0.309

Item `Cc1ccc2cccc(OCc3c(Cl)ccc(N(C)C(=O)Cc4ccc(C(=O)CN5CCC(Cc6ccccc6)CC5)n4C)c3Cl)c2n1` has what recorded Ki?
0.291

# input molecule: `CCN(C(=O)Cc1ccc(C(=O)c2ccc(Cl)nc2)n1C)c1ccc(Cl)c(COc2cccc3ccc(C)nc23)c1Cl` ; wanted: its Ki
0.342

Data request, read-out Ki, for `Cc1ccc2cccc(OCc3c(C)ccc(N(C)C(=O)Cc4ccc(-c5ccccc5)n4C)c3C)c2n1`
7.19

State the recorded Ki for this entry: `Cc1ccc2cccc(OCc3c(Cl)ccc(NC(=O)Cc4cc(C)c(C(=O)c5ccc(N)cc5)n4C)c3Cl)c2n1`
19.8

Recorded Ki for `Cc1ccc2cccc(OCc3c(Cl)ccc(N(C)C(=O)Cc4ccc(C(=O)CN5CCC(c6ccccc6)CC5)n4C)c3Cl)c2n1` , please?
0.293
